Data credit: ChEMBL document CHEMBL3351306

What logP was measured for each of the following?
assay: Lipophilicity, log P of the compound by HPLC analysis; type: physicochemical
Numbers only.

Reference set (4 entries):
[
  {
    "smiles.code": "CC(=O)OCc1cc(N)c(Nc2ccc(C#N)cc2)cc1Oc1c(C)cc(/C=C/C#N)cc1C",
    "recorded.result": 4.48
  },
  {
    "smiles.code": "CC(=O)OCc1cc(N)c(Nc2ccc(C#N)cc2)cc1Oc1c(C)cc(CCC#N)cc1C",
    "recorded.result": 2.84
  },
  {
    "smiles.code": "CNCc1cc(N)c(Nc2ccc(C#N)cc2)cc1Oc1c(C)cc(C#N)cc1C",
    "recorded.result": 1.86
  },
  {
    "smiles.code": "Cc1cc(C#N)cc(C)c1Oc1cc(Nc2ccc(C#N)cc2)c(N)cc1CO",
    "recorded.result": 3.57
  }
]

## Input I would be grateful if you could share the reported logP for Cc1cc(C#N)cc(C)c1Oc1cc(Nc2ccc(C#N)cc2)c(N)cc1CNCCCO .
## Output 1.81
